- Procedure Text: Analgesic activity, writhing method
- Type: in vivo
- Assay Context: po
Observable: ED50

> print(dat)
                          molecule  measured.value
1  COc1ccc2c(c1)CCN(CCc1ccccc1)CC2     > 178 mg/kg
2   Oc1ccc2c(c1)CCN(CCc1ccccc1)CC2     > 178 mg/kg
3            CCN1CCc2ccc(OC)cc2CC1     > 125 mg/kg

--- query ---
Problem: Could you share which ED50 value was measured for COc1ccc2c(c1)CCN(C)CC2 ?
Result: > 180 mg/kg

---

- Procedure Text: in vivo
- Assay Context: ip
LD50 by entry:

> print(dat)
                                   compound  measured.value
1  CC(C)=CCN1CCC2(C)c3cc(O)ccc3CC1C2C (centres unmarked) [Pentazocine, reference compound]     > 600 mg/kg

Problem: Could you share which LD50 value was measured for COc1ccc2c(c1)CCN(CCN1CCN(c3ccccc3)CC1)CC2 ?
Result: ~80 mg/kg
